Test system: PC-3
Test: NCI tumour cell line growth inhibition, 48 h
Activity calls are given as the source filed them. No stated cut-off is given here; in the data, active = GI50 up to about 1.1 µM and inactive = higher.
measured.quantity: GI50

# compound, target.system, GI50
records = [
    ("C/C(=N\\O)c1ccc2ccc3ccccc3c2c1", "PC-3", "32.3 µM (inactive)"),
    ("CC1(C)C=C(S(=O)(=O)c2ccccc2)Oc2ccccc2O1", "PC-3", "27.9 µM (inactive)"),
    ("CS(=O)(=O)OC1CCN(C2(c3cccc(O)c3)CCCCC2)CC1", "PC-3", "33.6 µM (inactive)"),
]

The recorded GI50 for entry c1ccc2c(c1)CCN(C1=NCCO1)C2 equals > 10 µM (inactive)

The recorded GI50 for entry CC(C)[Si](OC12CCC(CC1O)CC2CO)(C(C)C)C(C)C (stereo unspecified) equals 11.8 µM (inactive)

The recorded GI50 for entry CCCN(CCCC(NC(C)=O)C(=O)NCc1ccccc1)C(=O)N(CCCl)N=O (stereo unspecified) equals > 100 µM (inactive)

The recorded GI50 for entry O=C(c1ccc(Cl)cc1)N(C(=O)N1CCC(c2ccccc2)CC1)c1ccccc1 equals 6.4 µM (inactive)

The recorded GI50 for entry COc1cc(-c2cc(=O)c3c(OC)c(OC)c(OC)cc3o2)c(OC)c(OC)c1OC equals 23.6 µM (inactive)

The recorded GI50 for entry Clc1ccc(C2Nc3ccccc3C3=NCCN32)cc1 (stereo unspecified) equals 55.3 µM (inactive)

The recorded GI50 for entry O=C1Nc2nccnc2C(=O)N2CCC[C@@H]12 equals > 100 µM (inactive)

The recorded GI50 for entry COC(=O)C(Cc1c[nH]c2ccccc12)NC(=O)c1ccc(-c2ccc(Cl)cc2Cl)o1 (stereo unspecified) equals 7.96 µM (inactive)

* * *

Tested on: PC-3
Assay: NCI tumour cell line growth inhibition, 48 h
Activity calls are given as the source filed them. Cut-off read from the data, not from the text of the source: active = GI50 up to about 1.1 µM and inactive = higher.
The categories you may choose from are true (1) (active), false (0) (inactive)

See these solved cases before continuing.
# compound, target.system, assigned.category
measured = [
    ("CCC(C)c1c(Cl)nc(Cl)nc1Cl (centres undefined)", "PC-3", "false (0)"),
    ("CCCCCCCCCC(=O)N[C@@H](c1ccco1)[C@@H](O)C(=O)O[C@H]1C[C@@]2(O)[C@@H](OC(=O)c3ccccc3)[C@@H]3[C@]4(OC(C)=O)CO[C@@H]4C[C@H](O)[C@@]3(C)C(=O)[C@H](OC(C)=O)C(=C1C)C2(C)C", "PC-3", "true (1)"),
    ("CC(=O)n1nc(-c2ccc3ccccc3c2)nc1C", "PC-3", "false (0)"),
]

Here is another compound to look at.
Req: Hi, sorry to bother you, what did the test record for C1#Cc2ccccc2OCCOc2ccccc2C#Cc2ccccc2OCCOc2ccccc21 ?
Resp: false (0)

* * *

System: SK-MEL-2
Assay: NCI tumour cell line growth inhibition, 48 h
The source made the active and inactive calls. No stated cut-off is given here; in the data, active = GI50 up to about 1.1 µM and inactive = higher.
Each entry below lists one item and its recorded GI50 value.

The following compounds have reported results that may help.
# compound, measured.quantity, assay.value
data = [
    ("O=C1c2cccc3cccc(c23)C(=O)N1CCCNCCCNCCCCNCCCNCCCN1C(=O)c2cccc3cccc(c23)C1=O", "GI50", "4.01 µM (inactive)"),
    ("O=C([O-])C[n+]1ccccc1.c1ccncc1", "GI50", "> 100 µM (inactive)"),
    ("Cc1cc2occ(-c3ccc(Cl)cc3)c2c(=O)o1", "GI50", "> 100 µM (inactive)"),
    ("c1cncc(C2N3CCCCC3[C@@H]3c4[nH]c5ccccc5c4CCN23)c1 (stereo partly specified)", "GI50", "> 100 µM (inactive)"),
    ("CCCN(CCC)c1c([N+](=O)[O-])cc(S(N)(=O)=O)cc1[N+](=O)[O-]", "GI50", "16.4 µM (inactive)"),
]

Continue with the compound presented below.
The recorded GI50 for entry CCC12C=CCN3CCC4(C(=C(C(=O)OC)[C@@H]1O)Nc1ccccc14)C32 (stereo partly specified) equals 1.9 µM (inactive)

* * *

Tested on: LOX IMVI
Assay: NCI tumour cell line growth inhibition, 48 h
The source made the active and inactive calls. No stated cut-off is given here; in the data, active = GI50 up to about 1.1 µM and inactive = higher.
The categories you may choose from are active, inactive

# compound, assigned.category
records = [
    ("COc1ccc(Nc2nc(N)c(C(=O)c3ccc(Cl)cc3)s2)cc1", "active"),
    ("CCc1nc(N)nc(N)c1-c1ccc(Cl)c(/N=C/N(C)C)c1", "inactive"),
    ("O=C(Nc1nc2ncn(CCI)c2c(=O)[nH]1)c1ccccc1", "inactive"),
    ("CCOc1ccccc1/N=N/c1c(-c2ccccc2)nn(C(=O)CC(=O)Nc2cccc(Cl)c2)c1-c1ccccc1", "inactive"),
    ("C=C(C)c1nc(C#N)c(N)o1", "inactive"),
]

Req: Hi, sorry to bother you, what did the test record for CC(C)C[C@H](NC(=O)[C@H](Cc1cccc2ccccc12)NC(=O)N1CCOCC1)B(O)O ?
Resp: active

Req: Hi, sorry to bother you, what did the test record for Cc1c[nH]c2c1C13CC1CN(C(=O)c1cc4cc(NC(=O)c5cc6ccccc6o5)ccc4[nH]1)C3=CC2=O (configuration not stated) ?
Resp: active

Req: Hi, sorry to bother you, what did the test record for COC(=O)C1(C(=O)OC)Cc2ccc(OC)cc2C2=C1C(=O)c1ccccc1C2=O ?
Resp: inactive

Req: Hi, sorry to bother you, what did the test record for COc1ccc(/C=C/c2cc(=O)cc(/C=C/c3ccc(OC)c(O)c3)o2)cc1O ?
Resp: inactive

* * *

Each entry below lists one item and its recorded GI50 value.
Tested on: CAKI-1
Assay: NCI tumour cell line growth inhibition, 48 h
Active and inactive are the calls of the source. No stated cut-off is given here; in the data, active = GI50 up to about 1.1 µM and inactive = higher.

The following molecules have reported results that may help.
# molecule, target.system, measured.quantity, assay.value
rows = [
    ("CCCN(CCCC(NC(C)=O)C(=O)NCc1ccccc1)C(=O)N(CCCl)N=O (stereo not given)", "CAKI-1", "GI50", "17.6 µM (inactive)"),
    ("O=C1c2cccc([N+](=O)[O-])c2C(=O)c2nccnc21", "CAKI-1", "GI50", "4.86 µM (inactive)"),
]

The recorded GI50 for entry CC(=O)n1nc(-c2ccc3ccccc3c2)nc1C equals 53.7 µM (inactive)

The recorded GI50 for entry CCC1(O)C=CC(=O)C=C1 equals 31.4 µM (inactive)

The recorded GI50 for entry Oc1nc(-c2ccccc2)cc(-c2ccccc2O)n1 equals 76.2 µM (inactive)

The recorded GI50 for entry C/C(=N\O)c1ccc2ccc3ccccc3c2c1 equals 51.9 µM (inactive)

The recorded GI50 for entry CC(=N\N)/C(C)=N/N=C(C)/C(C)=N/N=C(C)/C(C)=N/N=C(C)/C(C)=N/N equals > 100 µM (inactive)

* * *

System: M14
Experiment: NCI tumour cell line growth inhibition, 48 h
The source made the active and inactive calls. Rule as the data show it: active = GI50 up to about 1.1 µM and inactive = higher.
measured.quantity: GI50

# compound, target.system, GI50
records = [
    ("c1cncc(C2N3CCCCC3[C@@H]3c4[nH]c5ccccc5c4CCN23)c1 (some centres not stated)", "M14", "> 100 µM (inactive)"),
    ("c1csc(-c2ccc(-c3cccs3)c3nsnc23)c1", "M14", "37.8 µM (inactive)"),
    ("O=C(Nc1ccccc1[N+](=O)[O-])C(=O)C(C(=O)c1ccccc1-c1ccccc1)C1OC(=O)c2ccccc21 (configuration not stated)", "M14", "15.5 µM (inactive)"),
    ("CCCCCCCCCC(=O)NC(CCC(=O)N(CCNC(=O)c1nc(-c2ccccc2)oc1-c1ccccc1)Cc1ccccc1)C(=O)O (configuration not stated)", "M14", "15 µM (inactive)"),
    ("C/C(=N\\O)c1ccc2ccc3ccccc3c2c1", "M14", "66.5 µM (inactive)"),
]

The recorded GI50 for entry O=C(CCCNC(=O)OCc1ccccc1)OCc1ccc2c(c1)C(=O)c1ccccc1C2=O equals > 100 µM (inactive)

The recorded GI50 for entry CCOC(=O)N1CCc2cc(OC)c(OC)c3c2c1cc1cc(OC)c(OC)cc13 equals 4.29 µM (inactive)

The recorded GI50 for entry CC(=O)OC12C(C)=C(C)C(=O)N1c1ccccc1N2C(C)=O (configuration not stated) equals > 100 µM (inactive)

The recorded GI50 for entry N/N=C1\C(=O)N(C2CCCCCC2)C(=O)C1C(=O)NC1CCCCCC1 (configuration not stated) equals 35 µM (inactive)

The recorded GI50 for entry CCCN(CCC)c1c([N+](=O)[O-])cc(S(N)(=O)=O)cc1[N+](=O)[O-] equals 16.9 µM (inactive)

The recorded GI50 for entry CCNC(=O)O/N=C1\CCC2[C@@H]3CC=C4C[C@@H](OC(=O)NCC)CC[C@]4(C)C3CC[C@]12C (some centres not stated) equals 1.31 µM (inactive)

The recorded GI50 for entry O=C(CC1(O)C(=O)Nc2ccccc21)c1cccc(O)c1 (configuration not stated) equals > 100 µM (inactive)

The recorded GI50 for entry CCn1cc(C(c2ccc(Cl)cc2)n2ccnc2)c2cc(Br)ccc21 (configuration not stated) equals 13.3 µM (inactive)

The recorded GI50 for entry CC12CC3(C)CC(C)(C1)CC(N=[N+]=[N-])(C2)C3 equals > 100 µM (inactive)

The recorded GI50 for entry Cc1cccc(/N=N/c2ccc(/N=N/c3c(O)ccc4ccccc34)cc2C)c1 equals 41.7 µM (inactive)

The recorded GI50 for entry S=c1nc(Nc2ccc(Br)cc2)c2c3c(sc2[nH]1)CN(N1CCc2c(sc4[nH]c(=S)nc(Nc5ccc(Br)cc5)c24)C1)CC3 equals 8.36 µM (inactive)

The recorded GI50 for entry CC(=N\N)/C(C)=N/N=C(C)/C(C)=N/N=C(C)/C(C)=N/N=C(C)/C(C)=N/N equals > 100 µM (inactive)

The recorded GI50 for entry CCN(CC)N1C(=O)[N-][N+](CC)(CC)C1=O equals > 100 µM (inactive)

Each recorded value in this set is attributed to ChEMBL document CHEMBL1201862.
